- target-system: IRAK4 (Homo sapiens)
- Construct: endogenous in cells; host or cells: OCI-LY10
- experiment-description: IRAK4 MSD Degradation in OCI-LY10
- Assay type: cell-based
- measurement-conditions: OCI-LY10 cells, Meso Scale Discovery, incubated 4 to 24 hours
measured-metric: DC50

Cc1ccc2c(c1C1CCN(C[C@H]3C[C@H](n4cc5cc(NC(=O)c6cccc(C(F)(F)F)n6)ccc5n4)C3)CC1)n(C)c(=O)n2C1CCC(=O)NC1=O (stereo partly drawn) = 100 to 200 nM
COc1cc2nc([C@H]3CC[C@H](CN(C)CCNc4cccc5c4C(=O)N(C4CCC(=O)NC4=O)C5=O)CC3)sc2cc1NC(=O)c1cncc(Cl)c1 (stereo partly drawn) = > 200 nM

Could you now look at the following compound, please?
# input compound: COc1cc2nn([C@H]3CC[C@H](CN(C)C4CCN(c5c(Cl)ccc6c5n(C)c(=O)n6C5CCC(=O)NC5=O)CC4)CC3)cc2cc1NC(=O)c1cccc(C(F)(F)F)n1 (stereo partly drawn) ; wanted: its DC50
# output 10 to 50 nM

====

- target-system: IRAK4 (Homo sapiens)
- Construct: endogenous in cells; host or cells: OCI-LY10
- experiment-description: IRAK4 MSD Degradation in OCI-LY10
- Type: cell-based
- measurement-conditions: OCI-LY10 cells, Meso Scale Discovery, incubated 4 to 24 hours
measured-metric: DC50

CN(CCCNc1cccc2c1C(=O)N(C1CCC(=O)NC1=O)C2=O)C[C@H]1CC[C@H](c2nc3cc(C(C)(C)O)c(NC(=O)c4cncc(Cl)c4)cc3s2)CC1 (some centres unmarked) = > 200 nM

# input compound: O=C1CCN(c2cncc3cc(C4CCN(C[C@H]5CC[C@H](c6nc7cnc(NC(=O)c8cccc(C(F)(F)F)n8)cc7s6)CC5)CC4)ccc23)C(=O)N1 ; wanted: its DC50
# output > 200 nM

# input compound: COc1cc2nn([C@H]3CC[C@H](CN4CCC(c5ccc6c(c5Cl)n(C)c(=O)n6C5CCC(=O)NC5=O)CC4)CC3)cc2cc1NC(=O)c1cccc(C(F)(F)F)n1 (some centres unmarked) ; wanted: its DC50
# output < 10 nM

# input compound: COc1cc2nn([C@H]3CC[C@H](CN4CCC(c5cccc6c5n(C)c(=O)n6C5CCC(=O)NC5=O)CC4)CC3)cc2cc1NC(=O)c1nc(C(F)(F)F)cs1 (some centres unmarked) ; wanted: its DC50
# output < 10 nM

# input compound: CC(C)(O)c1cc2nc([C@H]3CC[C@H](C(=O)N4CCC5(CC4)CC(CCNc4cccc6c4C(=O)N(C4CCC(=O)NC4=O)C6=O)C5)CC3)sc2cc1NC(=O)c1cccc(C(F)(F)F)n1 (some centres unmarked) ; wanted: its DC50
# output 100 to 200 nM

====

- target-system: IRAK4 (Homo sapiens)
- Construct: endogenous in cells; host or cells: OCI-LY10
- Sequence (Q9NWZ3 1-460): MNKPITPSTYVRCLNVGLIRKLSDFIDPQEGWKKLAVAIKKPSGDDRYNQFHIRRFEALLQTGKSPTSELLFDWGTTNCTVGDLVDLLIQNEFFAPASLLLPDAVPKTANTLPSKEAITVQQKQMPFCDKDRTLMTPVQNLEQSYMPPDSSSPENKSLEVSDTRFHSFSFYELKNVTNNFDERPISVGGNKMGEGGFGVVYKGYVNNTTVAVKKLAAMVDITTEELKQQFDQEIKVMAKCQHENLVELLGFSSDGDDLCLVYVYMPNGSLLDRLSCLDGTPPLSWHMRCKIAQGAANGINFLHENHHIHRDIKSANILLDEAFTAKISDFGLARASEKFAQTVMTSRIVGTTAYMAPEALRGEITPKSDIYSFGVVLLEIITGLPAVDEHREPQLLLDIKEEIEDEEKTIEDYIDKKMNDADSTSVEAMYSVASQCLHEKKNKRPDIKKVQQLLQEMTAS
- experiment-description: IRAK4 MSD Degradation in OCI-LY10
- Type: cell-based
- measurement-conditions: OCI-LY10 cells, Meso Scale Discovery, incubated 4 to 24 hours
// DC50 lookup, one value per entry

Here are 5 compounds together with their reported answers.
COc1cc2nc([C@H]3CC[C@H](CN4CCN(c5cccc6c(N7CCC(=O)NC7=O)cncc56)CC4)CC3)sc2cc1NC(=O)c1cccc(C(F)(F)F)n1 = 0.01 to 0.05 µM
Cn1c(=O)n(C2CCC(=O)NC2=O)c2cccc(N3CCN(C[C@H]4CC[C@H](n5cc6cc(NC(=O)c7cccc(C(F)(F)F)n7)c(C7CC7)cc6n5)CC4)CC3)c21 (some centres unmarked) = 0.01 to 0.05 µM
CN(C[C@H]1CC[C@H](n2cc3cc(NC(=O)c4cccc(C(F)(F)F)n4)ccc3n2)CC1)C1CCN(c2cccc3c2n(C)c(=O)n3C2CCC(=O)NC2=O)CC1 (some centres unmarked) = < 0.01 µM
COc1cc2nn([C@H]3C[C@H](CN4CCC(c5cccc6c(N7CCC(=O)NC7=O)cncc56)CC4)C3)cc2cc1NC(=O)c1cccc(C(F)(F)F)n1 = 0.01 to 0.05 µM
COc1cc2nn([C@H]3CC[C@H](CN4CCN(c5cccc6c5n(C)c(=O)n6C5CCC(=O)NC5=O)CC4)CC3)cc2cc1NC(=O)c1cncc(C#N)c1 (some centres unmarked) = < 0.01 µM

# input compound: C[C@H]1CN(c2cccc3c2n(C)c(=O)n3C2CCC(=O)NC2=O)CCN1C[C@H]1CC[C@H](n2cc3cc(NC(=O)c4cccc(C(F)(F)F)n4)ccc3n2)CC1 (some centres unmarked) ; wanted: its DC50
# output < 0.01 µM

# input compound: COc1cc2nn([C@H]3C[C@H](CN4CC(c5cccc6c5n(C)c(=O)n6C5CCC(=O)NC5=O)C4)C3)cc2cc1NC(=O)c1cccc(C(F)(F)F)n1 (some centres unmarked) ; wanted: its DC50
# output 0.01 to 0.05 µM

# input compound: Cn1c(=O)n(C2CCC(=O)NC2=O)c2cccc(N3CCN(C[C@H]4CC[C@H](n5cc6cc(NC(=O)c7cncc(C#N)c7)c(OC(F)(F)F)cc6n5)CC4)CC3)c21 (some centres unmarked) ; wanted: its DC50
# output > 0.2 µM

# input compound: CC(C)Nc1c(C(=O)N[C@H]2CC[C@H](CN3CCC(c4cccc5c(N6CCC(=O)NC6=O)cncc45)CC3)CC2)cnc2c1Oc1ccc(C#N)cc1O2 ; wanted: its DC50
# output > 0.2 µM

# input compound: COc1cc2nn([C@H]3CC[C@H](CN4CCN(C[C@H]5C[C@H](c6cccc7c(N8CCC(=O)NC8=O)cncc76)C5)CC4)CC3)cc2cc1NC(=O)c1cccc(C(F)(F)F)n1 ; wanted: its DC50
# output < 0.01 µM

# input compound: CCc1cc2nn([C@H]3CC[C@H](CN4CCN(c5cccc6c5n(C)c(=O)n6C5CCC(=O)NC5=O)CC4)CC3)cc2cc1NC(=O)c1cccc(C(F)(F)F)n1 (some centres unmarked) ; wanted: its DC50
# output < 0.01 µM
